Value source: the supplement of paper PMC6992640

Item-by-item account of cell viability
- Tested on: HCI11 (cells of an ER-positive luminal breast cancer xenograft);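 further: PDX cells carrying CMV promoter-driven luciferase, viability read as total photon flux per second by IVIS imaging following D-luciferin, vehicle control 0.1% DMSO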
- assay-comment: cell viability (% of vehicle); higher = less cytotoxic
- stated-conditions: 10 µM; 72 h
readout: cell viability

> print(dat)
                                   compound  test.result
1  COc1cc2ncnc(Nc3ccc(F)c(Cl)c3)c2cc1OCCCN1CCOCC1 [Gefitinib (ZD1839)]          110
2               CN(C)c1nc(N(C)C)nc(N(C)C)n1         96.8
3  CC(C)(C)c1ccc(C(O)CCCN2CCC(C(O)(c3ccccc3)c3ccccc3)CC2)cc1 (stereo not drawn)         55.3
